Below, each entry is listed with its recorded ka.
- testSystem: T1, human EphA4 (Homo sapiens, UniProt P54764)
- T1 construct: made in house; not restated for the human SEAP-His protein
- T1 sequence (P54764 20-547): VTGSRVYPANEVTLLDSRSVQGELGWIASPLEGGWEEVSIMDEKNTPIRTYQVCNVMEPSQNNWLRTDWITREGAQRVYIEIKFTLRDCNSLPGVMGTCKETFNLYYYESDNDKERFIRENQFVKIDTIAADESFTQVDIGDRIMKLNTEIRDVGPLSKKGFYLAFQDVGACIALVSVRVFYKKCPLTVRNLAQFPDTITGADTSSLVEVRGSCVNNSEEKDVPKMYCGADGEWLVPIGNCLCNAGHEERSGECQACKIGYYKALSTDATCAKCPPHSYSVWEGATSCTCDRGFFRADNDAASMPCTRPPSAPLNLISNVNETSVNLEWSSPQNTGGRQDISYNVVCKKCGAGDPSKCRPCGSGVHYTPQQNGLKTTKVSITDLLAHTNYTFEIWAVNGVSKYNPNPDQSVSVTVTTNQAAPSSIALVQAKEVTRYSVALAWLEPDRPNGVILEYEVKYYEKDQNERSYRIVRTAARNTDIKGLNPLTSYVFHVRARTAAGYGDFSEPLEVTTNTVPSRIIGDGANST
- methodNotes: Affinity of humanized antibodies by SPR (Biacore T200)
- Format: binding
- assaySetup: human EphA4 extracellular region-SEAP-His; 1:1 binding model
Return type: number; implicit unit M⁻¹ s⁻¹.

Answered examples (3):
molecule	readoutUnits	ka
135 (antibody, V domains shown, synthetic humanized antibody heavy chain variable region sequence; synthetic humanized antibody light chain variable region sequence) VH: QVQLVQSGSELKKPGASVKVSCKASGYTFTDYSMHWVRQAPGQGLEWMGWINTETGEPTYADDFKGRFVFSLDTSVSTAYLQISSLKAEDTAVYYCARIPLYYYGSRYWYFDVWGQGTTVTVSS VL: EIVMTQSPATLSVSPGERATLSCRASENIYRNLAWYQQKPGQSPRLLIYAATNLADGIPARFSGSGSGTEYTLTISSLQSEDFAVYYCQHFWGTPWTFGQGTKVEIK	M⁻¹ s⁻¹	320000
159 (antibody, V domains shown, synthetic humanized antibody heavy chain variable region sequence; synthetic humanized antibody light chain variable region sequence) VH: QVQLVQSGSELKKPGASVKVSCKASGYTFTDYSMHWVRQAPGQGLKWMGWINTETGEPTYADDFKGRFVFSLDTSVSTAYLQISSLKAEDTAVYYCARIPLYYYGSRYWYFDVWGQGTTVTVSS VL: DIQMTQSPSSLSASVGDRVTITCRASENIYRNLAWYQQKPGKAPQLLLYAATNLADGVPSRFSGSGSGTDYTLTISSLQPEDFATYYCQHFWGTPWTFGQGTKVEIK	M⁻¹ s⁻¹	310000
155 (antibody, V domains shown, synthetic humanized antibody heavy chain variable region sequence; synthetic humanized antibody light chain variable region sequence) VH: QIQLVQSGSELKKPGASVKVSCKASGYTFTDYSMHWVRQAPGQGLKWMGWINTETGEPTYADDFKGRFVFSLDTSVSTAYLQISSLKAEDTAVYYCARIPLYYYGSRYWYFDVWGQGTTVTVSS VL: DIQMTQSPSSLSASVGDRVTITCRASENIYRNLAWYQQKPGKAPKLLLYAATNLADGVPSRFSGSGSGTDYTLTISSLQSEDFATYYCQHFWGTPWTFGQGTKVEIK	M⁻¹ s⁻¹	330000

Task: Entry 69 (antibody, V domains shown, synthetic humanized antibody heavy chain variable region sequence; synthetic humanized antibody light chain variable region sequence) VH: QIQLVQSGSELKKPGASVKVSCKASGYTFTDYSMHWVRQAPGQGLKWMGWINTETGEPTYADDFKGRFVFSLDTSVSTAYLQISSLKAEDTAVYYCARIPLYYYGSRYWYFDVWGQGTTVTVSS VL: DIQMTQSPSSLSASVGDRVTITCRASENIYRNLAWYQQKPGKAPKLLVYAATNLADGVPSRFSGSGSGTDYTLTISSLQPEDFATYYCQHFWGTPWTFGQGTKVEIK : reported ka = ?
Result: 340000

Task: What value of measured ka is listed for 141 (antibody, V domains shown, synthetic humanized antibody heavy chain variable region sequence; synthetic humanized antibody light chain variable region sequence) VH: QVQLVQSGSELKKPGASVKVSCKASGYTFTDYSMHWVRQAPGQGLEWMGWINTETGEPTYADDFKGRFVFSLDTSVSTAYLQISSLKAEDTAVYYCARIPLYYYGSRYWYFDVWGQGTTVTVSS VL: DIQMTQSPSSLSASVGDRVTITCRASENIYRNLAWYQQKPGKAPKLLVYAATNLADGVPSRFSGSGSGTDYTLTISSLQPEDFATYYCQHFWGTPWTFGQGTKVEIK ?
Result: 390000
